// data source = ChEMBL document CHEMBL1132450

# Tested on: Leishmania tropica
# Assay Notes: The compound was tested for growth inhibition against DNM-R150 (Leishmania tropica) parasites, at a concentration of 15 uM
# Format: functional
Overview of reported Growth inhibition across a group of compounds:
Reported Endpoint: Growth inhibition

CCC(C)C(=O)OC[C@]12[C@H](OC(=O)c3ccccc3)[C@@H](OC(C)=O)[C@@H]3[C@@H](OC(C)=O)[C@]1(OC3(C)C)[C@@](C)(O)C[C@H](O)[C@@H]2OC(=O)c1ccccc1 (stereo not given in full) ... 77.8%
CCC(C)C(=O)OC[C@@]12[C@@H](OC(C)=O)CC[C@](C)(O)[C@]13OC(C)(C)[C@H]([C@@H](OC(=O)c1cccnc1)[C@@H]2OC(=O)c1ccccc1)[C@H]3OC(C)=O (stereo not given in full) ... 92.9%
CCC(C)C(=O)OC[C@]12[C@H](OC(=O)c3ccccc3)[C@@H](OC(=O)C(C)CC)[C@@H]3[C@@H](O)[C@]1(OC3(C)C)[C@@](C)(O)C[C@H](O)[C@@H]2OC(C)=O (stereo not given in full) ... 83.1%
CCC(C)C(=O)OC[C@]12[C@H](OC(=O)c3ccccc3)[C@@H](OC(C)=O)[C@@H]3[C@@H](O)[C@]1(OC3(C)C)[C@@](C)(O)C[C@H](O)[C@@H]2OC(=O)c1ccccc1 (stereo not given in full) ... 90.5%
CCC(C)C(=O)OC[C@]12[C@H](OC(=O)c3ccccc3)[C@@H](OC(C)=O)[C@@H]3[C@@H](O)[C@]1(OC3(C)C)[C@@](C)(O)C[C@H](OC(=O)c1cccnc1)[C@@H]2O (stereo not given in full) ... 20.8%

----------
# Assay Notes: The compound was tested for binding activity against nucleotide-binding domain 2, with quenching at 50 uM
Reported Endpoint: Quenching

CCC(C)C(=O)OC[C@]12[C@H](OC(=O)c3ccccc3)[C@@H](OC(C)=O)[C@@H]3[C@@H](O)[C@]1(OC3(C)C)[C@@](C)(O)C[C@H](OC(C)=O)[C@@H]2OC(C)=O (stereo partly drawn) ... 30.8%
CCC(C)C(=O)OC[C@]12[C@@H](OC(=O)c3ccccc3)[C@H](OC(=O)c3cccnc3)[C@@H]3[C@@H](OC(C)=O)[C@]1(OC3(C)C)[C@@](C)(O)C[C@H](OC(C)=O)[C@@H]2OC(C)=O (stereo partly drawn) ... 31.8%
CCC(C)C(=O)OC[C@]12[C@H](OC(=O)c3ccccc3)[C@@H](OC(C)=O)[C@@H]3[C@@H](O)[C@]1(OC3(C)C)[C@@](C)(O)C[C@H](OC(=O)c1cccnc1)[C@@H]2O (stereo partly drawn) ... 31.1%
CCC(C)C(=O)OC[C@]12[C@H](OC(=O)c3ccccc3)[C@@H](OC(C)=O)[C@@H]3[C@@H](O)[C@]1(OC3(C)C)[C@@](C)(O)C[C@H](O)[C@@H]2OC(=O)c1ccccc1 (stereo partly drawn) ... 31.4%
CCC(C)C(=O)OC[C@@]12[C@@H](OC(C)=O)CC[C@](C)(O)[C@]13OC(C)(C)[C@H]([C@@H](OC(=O)c1cccnc1)[C@@H]2OC(=O)c1ccccc1)[C@H]3OC(C)=O (stereo partly drawn) ... 34.3%
CCC(C)C(=O)OC[C@]12[C@H](OC(=O)c3ccccc3)[C@@H](OC(C)=O)[C@@H]3[C@@H](OC(C)=O)[C@]1(OC3(C)C)[C@@](C)(O)C[C@H](OC(C)=O)[C@@H]2OC(C)=O (stereo partly drawn) ... 22.8%
CC(=O)OC[C@@]12[C@@H](OC(C)=O)CC[C@](C)(O)[C@]13OC(C)(C)[C@H]([C@H](OC(C)=O)[C@H]2OC(=O)c1ccccc1)[C@H]3OC(C)=O ... 27%
CCC(C)C(=O)OC[C@]12[C@H](OC(=O)c3ccccc3)[C@@H](OC(=O)C(C)CC)[C@@H]3[C@@H](O)[C@]1(OC3(C)C)[C@@](C)(O)C[C@H](O)[C@@H]2OC(C)=O (stereo partly drawn) ... 27.5%
